B1: EHEE_rd2_0601 (parent)
chain: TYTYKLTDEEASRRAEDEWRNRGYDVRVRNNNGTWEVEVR

Variants of: B1
Assay: folding stability dG (cDNA display proteolysis); higher = more stable
Details: PBS, room temperature
Label scheme for folding stability dG: lower segment: < 0.6 kcal/mol; middle segment: ≥ 0.6 kcal/mol and < 1 kcal/mol; upper segment: ≥ 1 kcal/mol

Below, 4 variants whose answers are already recorded.
ITEM SEQUENCE	LABEL VALUE
TYTYKLTDEEASRRAETEWRNRGYDVRVRNNNGTWEVEVR [D17T]	upper segment
TYTYKLTDEEASFRAEDEWRNRGYDVRVRNNNGTWEVEVR [R13F]	middle segment
TYTYKLTDEEASRRAEDEWRNRGYDVPVRNNNGTWEVEVR [R27P]	lower segment
TMTYKLTDEEASRRAEDEWRNRGYDVRVRNNNGTWEVEVR [Y2M]	upper segment

Into which category would you place TYTYKLTDEEPSRRAEDEWRNRGYDVRVRNNNGTWEVEVR [A11P] ? lower segment

The entry to classify is TYTYKLTDEEASRRPEDEWRNRGYDVRVRNNNGTWEVEVR [A15P] ; which class holds it? lower segment

Dear colleague, I would appreciate it if you could identify the bin for TYTYKLTDEEASRRAEDEWRNRGYDVRVGNNNGTWEVEVR [R29G] and reply at your convenience. lower segment

Into which category would you place TYTYKLTDEEASRRAEDEWRNRGYDVRVRNNDGTWEVEVR [N32D] ? upper segment

Could you place TYTYKLTDEEASRRAEDEWVNRGYDVRVRNNNGTWEVEVR [R20V] in its proper category? Many thanks. middle segment

Which bin should I file TYTYKLTDEEASRRAEDEWRNRWYDVRVRNNNGTWEVEVR [G23W] under? lower segment

Which class holds TYTYKLTDEEASRRAEDEWRDRGYDVRVRNNNGTWEVEVR [N21D] ? upper segment

State the class of the variant shown: TYTYKLTDEEFSRRAEDEWRNRGYDVRVRNNNGTWEVEVR [A11F] middle segment

Textbook exercise: identify the category of the variant given here, TYTYKPTDEEASRRAEDEWRNRGYDVRVRNNNGTWEVEVR [L6P] , according to its measured value. lower segment
